Test: photoluminescence quantum yield (fraction); solvent given as SMILES
Conditions: in CN(C)C=O
Labelling: photoluminescence quantum yield reported below 0.3 becomes condition met; at or above becomes condition not met.

[[record]]
molecule = "CCCCCCCCC1(CCCCCCCC)c2cc(C=O)ccc2-c2ccc(/C=C/c3ccc(N(c4ccccc4)c4ccccc4)cc3)cc21"
qualitative_label = "condition met"

[[record]]
molecule = "c1ccc(CO[Si]23n4c5c6ccccc6c4/N=C4N=C(/N=c6/c7ccccc7c(n62)=c2c6ccccc6c(n23)=N5)c2ccccc2\\4)cc1 (stereo not drawn)"
qualitative_label = "condition met"

[[record]]
molecule = "COc1ccc(-c2cc3c4c(c2)CCc2cc(-c5ccc(OC)cc5)cc(c2-4)CC3)cc1"
qualitative_label = "condition not met"

[[record]]
molecule = "CCCCCCCCC1(CCCCCCCC)c2ccccc2-c2ccc(N(c3ccc(-n4c5ccccc5c5ccccc54)cc3)c3ccc4c(c3)C(CCCCCCCC)(CCCCCCCC)c3ccccc3-4)cc21"
qualitative_label = "condition not met"

[[record]]
molecule = "Cc1nc(-c2ccc(-n3c4ccccc4c4ccccc43)cc2)cc(-c2ccc(-n3c4ccccc4c4ccccc43)cc2)n1"
qualitative_label = "condition not met"

[[record]]
molecule = "CSc1sc(C(N)=O)c2nnn(C)c(=O)c12"
qualitative_label = "condition met"

[[record]]
molecule = "O=c1oc2ccccc2cc1-c1nc2ccccc2o1"
qualitative_label = "condition not met"

[[record]]
molecule = "O=C(O)c1ccc2ccc3cccc4ccc1c2c34"
qualitative_label = "condition met"

[[record]]
molecule = "COC(=O)c1ccc(C#Cc2ccc(N(C)C)cc2)cc1"
qualitative_label = "condition met"

[[record]]
molecule = "Fc1ccc(-c2cc3ccc4cc(-c5ccc(F)cc5)cc5ccc(c2)c3c45)cc1"
qualitative_label = "condition met"

[[record]]
molecule = "O=C1NC(=O)C(c2c[nH]c3ccccc23)=C1c1c[nH]c2ccccc12"
qualitative_label = "condition met"

[[record]]
molecule = "CC(C)(C)c1ccc(-c2sc3c(-c4ccc(C(C)(C)C)cc4)c4n(c3c2-c2ccc(C(C)(C)C)cc2)[B-](F)(F)[N+]2=Cc3c(-c5ccc(C(C)(C)C)cc5)c5sc(-c6ccc(C(C)(C)C)cc6)c(-c6ccc(C(C)(C)C)cc6)c5n3[B-](F)(F)[N+]2=C4)cc1"
qualitative_label = "condition not met"

[[record]]
molecule = "CN(C)c1ccc(-c2nc(-c3ccc(-n4c5ccccc5c5ccccc54)cc3)cc(-c3ccc(-n4c5ccccc5c5ccccc54)cc3)n2)cc1"
qualitative_label = "condition met"

